# System: OVCAR-4 ovarian
# experimental protocol: NCI-60 one-dose screen, 48 h
# experimental setup: 10 µM unless noted
The panel holds about 83,000 compounds, 20% with a hit somewhere; the sample as a whole holds those more often. The source made the active and inactive calls. The calls were made as follows: active = growth percent below 10; inactive = the rest.
Pick from active, inactive when you respond.

Previously resolved entries follow.
Check the results log: what was the call for `COc1ccc(/C=C(\C#N)n2nnc3cc(F)c(F)cc32)c(OC)c1OC` ?
inactive

Check the results log: what was the call for COc1cccc(CCC2CCCN(c3cc(C)nc(N)n3)C2)c1 (centres undefined) ?
inactive

Check the results log: what was the call for `COc1ccc(/C=C2\C=C(c3ccccc3)N(CCc3ccccc3)C2=O)cc1OC` ?
active

Check the results log: what was the call for `O=c1[nH]c(NCc2nnnn2-c2ccc(Br)cc2)nc2sc3c(c12)CCCC3` ?
inactive

Check the results log: what was the call for `CSc1ccc(Cl)c(C(=O)Nc2sccc2C(N)=O)c1` ?
inactive

Next:
Check the results log: what was the call for `O=C(NCCOCCOCCOCCNC(=O)c1cc2c(o1)C(=O)c1ccccc1C2=O)NC12CC3CC(CC(C3)C1)C2` ?
active

Check the results log: what was the call for `CCCCNC(=O)c1cc(NCc2cc(O)ccc2O)ccc1O` ?
inactive

Check the results log: what was the call for O=C(/C=C/C12c3ccccc3C(c3ccccc31)C1C(=O)N(c3ccc(Cl)cc3)C(=O)C12)c1ccccn1 (centres undefined) ?
active
